biological target: His-tagged KRAS G12D protein (Homo sapiens, UniProt P01116, G12D); test: KRAS G12D TR-FRET Assay; assay type: binding; details: TR-FRET binding
Sequence (P01116 1-188 isoform P01116-2 G12D): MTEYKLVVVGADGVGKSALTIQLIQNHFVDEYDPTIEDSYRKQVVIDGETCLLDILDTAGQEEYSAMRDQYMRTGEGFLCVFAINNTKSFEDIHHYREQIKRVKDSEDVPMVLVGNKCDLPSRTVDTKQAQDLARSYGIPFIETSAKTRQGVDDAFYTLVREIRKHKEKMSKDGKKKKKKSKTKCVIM
quantity_kind: IC50 (nM)

| compound | experimental_target | uom | IC50 |
| --- | --- | --- | --- |
| C[C@@]12COCCN(C1)c1nc(OC[C@@H]3CC[C@H]4COCCN43)nc3c(F)c(ncc13)-c1c(c(Cl)cc3[nH]ncc13)CCCOC(=O)O2 (single isomer, unassigned) [Example 309] | His-tagged KRAS G12D protein (Homo sapiens, UniProt P01116, G12D) | nM | 10 |
| Fc1c2ncc3c(nc(OC[C@@]45CCCN4C[C@H](F)C5)nc13)N1CCCC[C@H](C1)c1cnn(n1)CCCc1c(Cl)cc3[nH]ncc3c1-2 (single isomer, unassigned) [Example 296] | His-tagged KRAS G12D protein (Homo sapiens, UniProt P01116, G12D) | nM | 4 |
| CC12COCCN(C1)c1nc(OC[C@@]34CCCN3C[C@H](F)C4)nc3cc(nnc13)-c1c(c(Cl)cc3[nH]ncc13)CCCOC(=O)O2 (single isomer, unassigned) [Example 363] | His-tagged KRAS G12D protein (Homo sapiens, UniProt P01116, G12D) | nM | 20200 |
| [2H]C([2H])([2H])[C@]12COCCN(C1)c1nc(OC[C@@]34CCCN3C[C@H](F)C4)nc3c(F)c(ncc13)-c1c(c(C)cc3[nH]ncc13)CCCOC(=O)O2 (single isomer, unassigned) [Example 351] | His-tagged KRAS G12D protein (Homo sapiens, UniProt P01116, G12D) | nM | 464 |
| CN1CCC[C@H]1COc1nc2c3cnc(c(F)c3n1)-c1c(c(Cl)cc3[nH]ncc13)CCCOC(=O)O[C@@]1(CF)COCCN2C1 (single isomer, unassigned) [Example 337] | His-tagged KRAS G12D protein (Homo sapiens, UniProt P01116, G12D) | nM | 2440 |
| O=C1CCCCc2c(Cl)cccc2-c2ncc3c(nc(OC[C@@]45CCCN4C[C@H](F)C5)nc3c2F)N2CC[C@@H]3CCN1[C@@H]3C2 (single isomer, unassigned) [Example 163] | His-tagged KRAS G12D protein (Homo sapiens, UniProt P01116, G12D) | nM | 2840 |
| [2H]C([2H])([2H])[C@@]12COCCN(C1)c1nc(OC[C@@]34CCCN3C[C@H](F)C4)nc3c(F)c(ncc13)-c1c(c(C)cc3[nH]ncc13)CCCOC(=O)O2 (single isomer, unassigned) [Example 352] | His-tagged KRAS G12D protein (Homo sapiens, UniProt P01116, G12D) | nM | 6 |
| C[C@@]12COCCN(C1)c1nc(OC[C@H]3CC[C@@H]4COCCN43)nc3c(F)c(ncc13)-c1c(c(Cl)cc3[nH]ncc13)CCCOC(=O)O2 (single isomer, unassigned) [Example 308] | His-tagged KRAS G12D protein (Homo sapiens, UniProt P01116, G12D) | nM | 6 |
| C[C@@H](Oc1nc2c3cnc(c(F)c3n1)-c1c(c(Cl)cc3[nH]ncc13)CCCOC(=O)O[C@@H]1COCCN2C1)[C@@H]1CCCN1C (single isomer, unassigned) [Example 203] | His-tagged KRAS G12D protein (Homo sapiens, UniProt P01116, G12D) | nM | 17 |
| Cc1cc2[nH]ncc2c2c1CCCC(F)C(=O)N[C@@H]1CCCCN(C1)c1nc(OC[C@@]34CCCN3C[C@H](F)C4)nc3c(F)c-2ncc13 (single isomer, unassigned) [Example 160] | His-tagged KRAS G12D protein (Homo sapiens, UniProt P01116, G12D) | nM | 4 |

[I] O=C1OC/C=C/c2c(Cl)cc3[nH]ncc3c2-c2ncc3c(nc(OC[C@@]45CCCN4C[C@H](F)C5)nc3c2F)N2CCC[C@H](C2)O1 (single isomer, unassigned) [Example 116]
[II] CN(C)CC1(COc2nc3c4cnc(c(F)c4n2)-c2c(c(Cl)cc4[nH]ncc24)CCCOC(=O)O[C@]2(C)COCCN3C2)CC1 (single isomer, unassigned) [Example 331]
[III] O=C1N[C@H]2C[C@@H](O)CN(C2)c2nc(OC[C@@]34CCCN3C[C@H](F)C4)nc3c(F)c(ncc23)-c2c(c(Cl)cc3[nH]ncc23)CCCO1 (single isomer, unassigned) [Example 285]
[IV] CC12COCCN(C1)c1nc(OC[C@@]34CCCN3C[C@H](F)C4)nc3cc(nnc13)-c1c(c(Cl)cc3[nH]ncc13)CCCOC(=O)O2 (single isomer, unassigned) [Example 362]
query: Order the items by recorded IC50; the first position goes to the largest value. Give your ranking as a list of the labels in the requested order.
result: III, I, IV, II
(III: 1910 nM, I: 17 nM, IV: 8 nM, II: 5 nM)

[A] O=C1OCCc2c(Cl)cc3[nH]ncc3c2-c2ncc3c(nc(OC[C@@]45CCCN4C[C@H](F)C5)nc3c2F)N2CCC[C@@]3(C[C@H](CO3)O1)C2 (single isomer, unassigned) [Example 314]
[B] O=C1COCCc2c(Cl)cc3[nH]ncc3c2-c2ncc3c(nc(OC[C@@]45CCCN4C[C@H](F)C5)nc3c2F)N2CC[C@H]3CCN1[C@H]3C2 [Example 270]
[C] CN1C(=O)OCCCc2c(Cl)cc3[nH]ncc3c2-c2ncc3c(nc(OC[C@@]45CCCN4C[C@H](F)C5)nc3c2F)N2C[C@H](O)C[C@H]1C2 (single isomer, unassigned) [Example 287]
[D] O=C1OC[C@H]2C[C@@H]2c2c(Cl)cc3[nH]ncc3c2-c2ncc3c(nc(OC[C@@]45CCCN4C[C@H](F)C5)nc3c2F)N2CCC[C@H](C2)O1 (racemic) [Example 113]
query: Please put the entries in order of rising IC50. Give your ranking as a list of the labels in the requested order.
result: B, D, A, C
(B: 7 nM, D: 10 nM, A: 21 nM, C: 1230 nM)

====

target: His-tagged KRAS G12D protein (Homo sapiens, UniProt P01116, G12D); assay: KRAS G12D TR-FRET Assay; assay type: binding; settings: TR-FRET binding
pIC50: −log10 of the molar value.
quantity_kind: pIC50

| compound | pIC50 |
| --- | --- |
| O=C1OCCCc2c(Cl)cc3[nH]ncc3c2-c2ncc3c(nc(OC[C@@]45CCCN4C[C@H](F)C5)nc3c2F)N2CCOC[C@@](CF)(C2)O1 (single isomer, unassigned) | 5.64 |
| Fc1c2ncc3c(nc(OC[C@@]45CCCN4C[C@H](F)C5)nc13)N1CCO[C@]3(C1)C[C@@H](C3)OCCCCc1c(Cl)cc3[nH]ncc3c1-2 (single isomer, unassigned) | 8.22 |
| O=C1N[C@@H]2C[C@H](O)CN(C2)c2nc(OC[C@@]34CCCN3C[C@H](F)C4)nc3c(F)c(ncc23)-c2c(c(Cl)cc3[nH]ncc23)CCCO1 (single isomer, unassigned) | 8.30 |

[A] O=C1OCC[C@@H]2CCc3cc4[nH]ncc4c(c32)-c2ncc3c(nc(OC[C@@]45CCCN4C[C@H](F)C5)nc3c2F)N2CCOC[C@H](C2)O1 (single isomer, unassigned)
[B] Cc1cc2[nH]ncc2c2c1C[C@@H](C)COC(=O)O[C@@H]1CCCN(C1)c1nc(OC[C@@]34CCCN3C[C@H](F)C4)nc3c(F)c-2ncc13 (single isomer, unassigned)
query: # query: argmin of pIC50 over A and B The response must carry the label of the picked entry.
result: B

====

system: AsPC-1 cells; test: AsPC-1 CTG Assay (CellTiter-Glo cell viability, 72 h); assay type: cell-based, human; settings: Homo sapiens, ASPC1, 72 h, AsPC-1 cells, 72 h; first value of cell; read-out: G12D/C/V Cell Proliferation CTG (72 h) AsPC-1
quantity_kind: IC50 (nM)

Known IC50 results, listed for orientation:
| compound | IC50 (nM) |
| --- | --- |
| C[C@@]12COCCN(C1)c1nc(OC[C@@]34CCCN3C[C@H](F)C4)nc3c(F)c(ncc13)-c1c(c(F)cc3[nH]ncc13)CCCOC(=O)O2 | 120 |
| O=C1COCCc2c(Cl)cc3[nH]ncc3c2-c2ncc3c(nc(OC[C@@]45CCCN4C[C@H](F)C5)nc3c2F)N2CC[C@H]3CCN1[C@H]3C2 | 606 |
| O=C1OCCCc2c(Cl)cc3[nH]ncc3c2-c2ncc3c(nc(OC[C@@]45CCCN4C[C@H](F)C5)nc3c2F)N2CCC[C@]3(C2)C[C@H](C3)O1 | 318 |
| Cc1cc2[nH]ncc2c2c1CCCOC(=O)CC1CCCN(C1)c1nc(OC[C@@]34CCCN3C[C@H](F)C4)nc3c(F)c-2ncc13 (some centres unmarked) | 191 |
| Fc1c2ncc3c(nc(OC[C@@]45CCCN4C[C@H](F)C5)nc13)N1CCC[C@]3(C1)C[C@H](C3)OCCCCc1c(Cl)cc3[nH]ncc3c1-2 | 40 |

[I] CC1COC(=O)C[C@@H]2CCCN(C2)c2nc(OC[C@@]34CCCN3C[C@H](F)C4)nc3c(F)c(ncc23)-c2c(c(Cl)cc3[nH]ncc23)C1 (some centres unmarked)
[II] O=C1OCCCc2c(Cl)cccc2-c2ncc3c(nc(OC[C@@]45CCCN4C[C@H](F)C5)nc3c2F)N2CCOC[C@H](C2)O1
[III] C[C@@]12CCCN(C1)c1nc(OC[C@@]34CCCN3C[C@H](F)C4)nc3c(F)c(ncc13)-c1cc(O)cc3ccc(F)c(c13)CCCC(=O)O2 [Example 43, bis(2,2,2-trifluoroacetate)]
query: Please put the entries in order of rising IC50. Give your ranking as a list of the labels in the requested order.
result: III, I, II
(III: 92 nM, I: 280 nM, II: 1950 nM)
